Data origin, for the record: PubChem BioAssay (NCI)

tested on: SNB-75 CNS; assay: NCI-60 one-dose screen, 48 h (100 = growth as untreated, 0 = no growth, -100 = all killed); conditions: 10 µM unless noted
This is part of a sample that, as a whole, favours compounds with a hit. Of some 83,000 tested, about 20% had one in any assay.
parameterMeasured: growth (%)
Field format: number, assumed %, no unit text.

# input For O=C(N/N=C\c1c(O)ccc2ccccc12)C1CC1 , what is its reported growth?
# output 53.8

# input Lookup N#C/C(=C\c1ccc(-c2cccc(C(F)(F)F)c2)o1)c1nc(-c2ccco2)cs1
# output 82.2

# input Lookup CC(=O)O[C@H]1CC[C@]2(C)[C@H]3CC=C4[C@@H]5[C@H](C)[C@@H](C)CC[C@]5(C(=O)NCCNCCNCCN)CC[C@@]4(C)[C@]3(C)CC[C@H]2C1(C)C
# output 70.8

# input Lookup CN(C)c1ccc(-c2ccc(-c3ccc(C(=N)N)c(F)c3)s2)cc1
# output 98.9

# input Lookup CC(=O)c1c(C)[nH]c(-c2nc3ccc(N4CCN(C)CC4)cc3[nH]2)c1-c1ccc(N(C)C)cc1
# output -9.22

# input Lookup O=C(CCCCCn1c2ccccc2c2c3c(c4c5ccccc5[nH]c4c21)C(=O)N(O)C3=O)N1CCOCC1
# output 87

# input Lookup Cn1cc(-c2csc(-c3cn(C(=O)OC(C)(C)C)c4ccccc34)n2)c2cccnc21
# output 57.7

# input Lookup CN1CCN(c2nc(-c3cccc4ccccc34)nc3sc4c(c23)CCCCCC4)CC1
# output 49.1

# input Lookup O=c1c(CNc2ccc(S(=O)(=O)Nc3nccs3)cc2)coc2ccccc12
# output 73.8

# input Lookup COc1cc(/C=C2\C(=O)N(CC(O)COc3cc(O)c4c(=O)cc(-c5ccccc5)oc4c3)c3ccccc32)cc(OC)c1O (stereo not drawn)
# output 81.1

# input Lookup COc1ccc2c(c1)c(-c1nc(-c3c[nH]c4ncccc34)cs1)cn2CCN
# output 56.6

# input Lookup CCCC1CCCCN1C(=O)OCC(C)C (stereo not drawn)
# output 99.5

# input Lookup O=[N+]([O-])c1cc(S(=O)(=O)c2ccc(F)c([N+](=O)[O-])c2)ccc1F
# output 97.2

# input Lookup CC(=O)OC(C)COc1ccc(-c2ccccc2)cc1 (stereo not drawn)
# output 89.6

# input Lookup COC(=O)[C@]12CC[C@@H](C)[C@H](C)[C@@H]1C1=CC[C@@H]3[C@@]4(C)C[C@@H](O)OC[C@](C)(C=O)C4C(=O)C[C@@]3(C)[C@]1(C)CC2 (stereo partly drawn)
# output 13.3

# input Lookup COc1cccc(-c2nn(-c3ccccc3)cc2-c2ccnc(NCCCNS(=O)(=O)c3ccc(C(F)(F)F)cc3)c2)c1
# output 47.4

# input Lookup Nc1nc2c3ccncc3cc(-c3cccc(Cl)c3)c2c2cnccc12
# output 57

# input Lookup CCOC(=O)c1ccc2c(c1)[n+](=O)c(C(=O)C1CCCS1)c(C(F)(F)F)n2[O-] (stereo not drawn)
# output -100

----------
system: LOX IMVI melanoma; experiment: NCI-60 one-dose screen, 48 h (100 = growth as untreated, 0 = no growth, -100 = all killed); details: 10 µM unless noted
The panel holds about 83,000 compounds, 20% with a hit somewhere; the sample as a whole holds those more often.
Class key for growth values: lo: < 20%; mid: ≥ 20% and < 60%; hi: ≥ 60%

# input Exam item: assign CCN(CC)CCCCCNc1cc(OC(=O)c2ccccc2)cc2cccnc12 to the correct category.
# output mid

# input Lookup Nc1c(C(=O)Nc2cccc3ccccc23)sc2nc3c(cc12)CCCC3
# output mid

# input Lookup c1ccc(CN2C(c3ccccc3)=Nc3ccccc3C2c2c[nH]c3ccccc23)cc1 (centres undefined)
# output lo

# input Lookup Cc1cc(N2CCCCC2)nc(N(CCCNc2ccnc3cc(Cl)ccc23)Cc2ccco2)n1
# output lo

# input Lookup C#CCC(C)(O)/C=C/C1=C(C)CCCC1(C)C (centres undefined)
# output hi

# input Lookup Clc1ccc(Cn2cc(-c3nc4ccc(Br)nc4n3Cc3ccc(Cl)cc3)c3cccnc32)cc1
# output hi

# input Lookup CC(C)=CCC/C(C)=C/CC/C(C)=C/CSC[C@H](NC(=O)CCCCCN1CCN(C)CC1)C(=O)NC1CCCCCC1
# output mid

# input Lookup CCCCC[C@H]1C/C=C2/C(=O)C(Cl)=C[C@@H]2C/C=C\CCCC(=O)O1
# output lo

# input Lookup COc1cccc(-c2nn(-c3ccccc3)cc2-c2ccnc(NCCCNS(=O)(=O)c3cccc(F)c3)c2)c1
# output mid
